Data provenance: patent US20040072240A1

Form field: DC50 Y1-DC50 WT (one value per entry).
# measured-on: HLA A2.1 molecule (human)
# test-details: T2 cells, flow cytometry; P1Y variant against its natural peptide

binder: YLPWHRLFLL (modifications not checked) [P1Y variant of Tyrosinase 207]
DC50 Y1-DC50 WT: > 4 h
//
binder: YLMPYGCLL (modifications not checked) [P1Y variant of HER-2/neu 799]
DC50 Y1-DC50 WT: > 2 h
//
binder: YLQPEQLQV (modifications not checked) [HER-2/neu 391Y1]
DC50 Y1-DC50 WT: > 6 h
//
binder: YLADTNSLAV (modifications not checked) [gp100 570Y1]
DC50 Y1-DC50 WT: > 2 h
//
binder: YLTGDENFTI (modifications not checked) [P1Y variant of Tyrosinase 224]
DC50 Y1-DC50 WT: > 2 h
//
binder: YIFGSLAFL (modifications not checked) [HER-2/neu 369Y1]
DC50 Y1-DC50 WT: > 2 h
//
binder: YLVKSPNHV (modifications not checked) [P1Y variant of HER-2/neu 851]
DC50 Y1-DC50 WT: 2 h
//
binder: YLYRYGSFSV (modifications not checked) [gp100 476Y1]
DC50 Y1-DC50 WT: 2 h
//
binder: YLIHHNTHL (modifications not checked) [HER-2/neu 466Y1]
DC50 Y1-DC50 WT: > 4 h
//
binder: YLCRWGLLL (modifications not checked) [HER-2/neu 5Y1]
DC50 Y1-DC50 WT: 0 h
